# Test Method Notes: caspase-8 TRAIL sensitization, hit retest, confirmation, cell-based, NB7+caspase-8, with/without TRAIL, luminescence panel (AID 651596)
# Experimental Parameters: NB7 neuroblastoma + caspase-8, without TRAIL, luminescence viability, without TRAIL, mean of runs, at 10 µM
hey, just use yes if measured activity is less than 80%, otherwise no

Hello, I'm reviewing records and need to know if activity of "CCN1CCN(Cc2ccc(NC(=O)c3ccc(C)c(NC(=O)c4c[nH]c5cc(C(F)(F)F)ccc5c4=O)c3)cc2C(F)(F)F)CC1" is below 80%. Could you check?
no

Would you mind doing "CC(C)(C)c1ccc(NC(=O)c2ccsc2)cc1" as well?
yes

Would you mind doing "COc1ccc2sc(NC(=O)c3ccco3)nc2c1" as well?
yes

Would you mind doing "O=C(Nc1cc(C(F)(F)F)cc(C(F)(F)F)c1)Nc1cnn(-c2ccc([N+](=O)[O-])cc2)c1C(F)(F)F" as well?
yes

Would you mind doing "CNC[C@@H](CC1CCCCC1)NC[C@H](CC(C)C)NCCc1cccc(C(F)(F)F)c1" as well?
no

Would you mind doing "Cc1ccc(C(=O)Nc2ccc3c(c2)OCCO3)c(Cl)c1" as well?
no

Would you mind doing "O=C(Nc1ccc(OC(F)(F)F)cc1)c1ccc2c(c1)no[n+]2[O-]" as well?
no

Would you mind doing "Cc1ccc2nc(-c3ccc(NC(=O)COC(=O)c4cncc(Br)c4)cc3)sc2c1" as well?
yes
